- Test system: ACHN
- assay text: NCI tumour cell line growth inhibition, 48 h
The source made the active and inactive calls. Rule as the data show it: active = GI50 up to about 1.1 µM and inactive = higher.
experimental endpoint: GI50

As a guide, the following entries are already answered.
- COc1ccc2c(c1)c(=O)c1c(NCCCN(C)C)ccc3ncn2c31: 0.659 µM (active)
- O=C(O)CCC(NC(=O)c1ccc(OCc2nc3cc(C(F)(F)F)ccc3nc2-c2ccccc2)cc1)C(=O)O (centres undefined): > 100 µM (inactive)
- O=C1N2Cc3c4ccc5c3CN3C(=O)N6Cc7c(ccc(c7CN1C6(c1ccccc1)C23c1ccccc1)OCCOCCOc1cc(Br)c(Br)cc1OCCOCCO4)OCCOCCOc1cc(Br)c(Br)cc1OCCOCCO5 (centres undefined): 47.8 µM (inactive)

Input O/N=C\c1c(O)ccc2ccccc12 , output reported GI50. 24.8 µM (inactive)

Supply recorded GI50 for Cc1cccc2cc3ccc4ccccc4c3cc12 here. 46.7 µM (inactive)

Give the reported value of GI50 for this record: CC(C(=O)c1ccc(Cl)cc1)/C(=N/NC(=O)NN)C(=O)Nc1cccc(C(F)(F)F)c1 (centres undefined) > 100 µM (inactive)

Note GI50 for the compound shown: CCOC(=O)c1c(-c2ccc(Cl)cc2)c(C#N)c(=S)n(C2OC(COC(C)=O)C(OC(C)=O)C(OC(C)=O)C2OC(C)=O)c1-c1ccccc1 (centres undefined) > 100 µM (inactive)

Provide only the value of recorded GI50 for Cc1c(C)c(C)c(Cn2[nH]c(=O)n(C)c2=O)c(C)c1C > 100 µM (inactive)

Quick one: give measured GI50 for CCC(=O)N1NC(=O)C(CC)(CC)C1=O > 100 µM (inactive)

---

- Test system: PC-3
- assay text: NCI tumour cell line growth inhibition, 48 h
Active and inactive are the calls of the source. Rule as the data show it: active = GI50 up to about 1.1 µM and inactive = higher.
Return exactly one item of active, inactive

Some solved cases for reference:
• CCn1c(=O)c2c(=O)[nH][nH]c2c2ccccc21 = inactive
• CC(=O)c1ccc(Nc2c3c(nc4ccccc24)CCCC3)cc1 = inactive
• N#CC1Cc2cc3c(cc21)OCO3 (centres undefined) = inactive

Which result was noted for this compound in the test: COc1cc(-c2c3c(cc4c2OCO4)[C@@H](Nc2ccc(-c4ccc(-c5ccc(N[C@@H]6c7cc8c(cc7C(c7cc(OC)c(O)c(OC)c7)[C@H]7C(=O)OC[C@H]67)OCO8)cc5)cc4)cc2)[C@H]2COC(=O)[C@@H]2C3)cc(OC)c1O (some centres undefined) inactive

Hey, what did the test say about Cc1oc2c(c1C)S(=O)(=O)C(C#N)C(c1ccccc1)N2 (centres undefined) ? inactive

Returns: the outcome recorded for CC(C)(C)OC(=O)N1C(=O)OC[C@@H]2C=C[C@@H]21 in this assay. inactive

// outcome(item) with item = CC1(C)NC2C(=O)c3c([nH]c4ccccc34)[C@]3(C)CCC1CC23 (some centres undefined) inactive

// param item: Nc1ncnc2c1ccn2C/C=C\CO ; yields the recorded call inactive

Which result was noted for this compound in the test: COc1cc(OC)c(OC)cc1/C=C/c1cnnc2ccccc12 inactive

# lookup: test call for COc1cccc(N2C(=O)C3c4[nH]c5ccc(C)cc5c4C4CCC(C(C)(C)C)CC4C3C2=O)c1 (centres undefined) inactive

Test call for this compound, please: COc1ccc(/C=N/Nc2nc3ccccc3c(=O)n2-c2ccccc2)c(OCc2ccccc2)c1 inactive

Identify the outcome logged in this assay for the compound shown: O=c1[nH]nc(-c2ccccc2)n1/N=C/c1cccc([N+](=O)[O-])c1 inactive

# lookup: test call for CC(=O)Nc1ccc2c(c1)nc1c3ccccc3ccn21 inactive

Dear colleague, could you share the recorded outcome for C=C1CC[C@@H](C)[C@](C)(CCc2ccoc2)C/C=C\C=C/1C(=O)O when you have a moment? inactive

Tell me the recorded outcome of this test for O=C(O)c1ccc2c(c1)CC1(C2)Cc2cc3c(cc2C1=O)CCC3 (centres undefined) . inactive

Please state the recorded outcome for this compound: O=C(c1ccccn1)c1nnn2ccccc12 inactive

Entry CCC1=C(C=O)c2cc3[nH]c(cc4nc(c5c6[nH]c(cc1n2)c(C)c6C(=O)C5C(=O)OC)C(CCC(=O)OC)C4C)c(C)c3CC (centres undefined) : call = ? inactive

State the result this test recorded for CCOC(=O)C(NC(=O)OCc1ccccc1)C(=O)O (centres undefined) . inactive

What did the test return for Cc1cccc(N2C(=O)C3ON(C(C(N)=O)c4ccccc4)C(c4c5ccccc5c(Cl)c5ccccc45)C3C2=O)c1C (centres undefined) ? inactive

Per the records of this test, what outcome belongs to C=C(CO)[C@H]1CC/C(C)=C/CC/C(C)=C/C/C=C(\C)[C@H](O)C1 ? inactive

How was Nc1ccc(COC(O)CN2CCCCC2)cc1[N+](=O)[O-] (centres undefined) classified in this test? inactive

In this assay, the call recorded for CN(C)c1nc(NC23CC4CC(CC(C4)C2)C3)nc(N(C)C)n1 was what? inactive
